Every entry's value here was drawn from patent US20160243011A1.

Test system: pro-MMP-1
Assay: UVA induced pro-MMP-1 production in HDFs (ELISA)
Type: cell-based, Human
Settings: Example 9 (9B), MMP-1; 1 μM
Method: In order to evaluate the impact of UV-induced inflammation in human skin, primary cell monolayer cultures were exposed to different types of UV radiation, i.e. UVB and UVA. […] To test these anti-oxidants for anti-inflammatory and anti-aging properties, primary Human Dermal Fibroblasts (HDFs) were cultured in the presence of each ingredient for 6 hours. […] Media supernatants were collected after 24 hours and analyzed by ELISA for IL-6 and pro-MMP-1. […]
QUANTITY NAME: EPF Score
One number for each entry.

>>> recorded_result("O=C1O[C@H]([C@@H](O)CO)C(O)=C1O")
3

Value sought for every listed molecule: EPF Score.
1. c1coc(CNc2ncnc3[nH]cnc23)c1
2. O=C(O)CCCC[C@@H]1CCSS1 (racemic)
3. COc1cc(/C=C/C(=O)O)ccc1O
4. COC1=C(OC)C(=O)C(C/C=C(\C)CC/C=C(\C)CC/C=C(\C)CC/C=C(\C)CC/C=C(\C)CC/C=C(\C)CC/C=C(\C)CC/C=C(\C)CC/C=C(\C)CCC=C(C)C)=C(C)C1=O

1: 2; 2: 16; 3: 7; 4: 5
